Could you please report measured MFC for the items listed next?
Test system: Penicillium ochrochloron
assay.notes: Fungicidal activity against Penicillium ochrochloron ATCC 9112 after 72 hrs by serial subcultivation method
Format: functional
condition.parameters: ATCC 9112, 72 h
Output spec: scalar in µM, unitless text.

INPUT: Quick check: MFC of `Cc1cnc(/N=C2\NC(=O)/C(=C/c3ccc([N+](=O)[O-])cc3)S2)s1` ?
OUTPUT: 31.5

INPUT: What about `O=C1N/C(=N\c2nccs2)S/C1=C\c1cccc(F)c1` ?
OUTPUT: 65.4

INPUT: What about `O=C1N/C(=N\c2nccs2)S/C1=C\c1c(Cl)cccc1Cl` ?
OUTPUT: 56.2

INPUT: What about `O=C1N/C(=N\c2nc(-c3ccccc3)cs2)S/C1=C\c1ccccc1` ?
OUTPUT: 25.2

INPUT: What about `CN(C)c1ccc(/C=C2\S/C(=N/c3nccs3)NC2=O)cc1` ?
OUTPUT: 15.2

INPUT: What about `O=C1N/C(=N\c2nccs2)S/C1=C\c1ccc(Cl)cc1Cl` ?
OUTPUT: 56.2

INPUT: What about `O=C1N/C(=N\c2nccs2)S/C1=C\c1cccc(Br)c1` ?
OUTPUT: 22

INPUT: What about CC(=O)N1CCN(c2ccc(OCC3COC(Cn4ccnc4)(c4ccc(Cl)cc4Cl)O3)cc2)CC1 (stereo not given) [KETOCONAZOLE] ?
OUTPUT: 3800

INPUT: What about `COc1ccccc1/C=C1\S/C(=N/c2nccs2)NC1=O` ?
OUTPUT: 31.5

INPUT: What about `Cc1ccc(/C=C2\S/C(=N/c3nccs3)NC2=O)cc1` ?
OUTPUT: 66

INPUT: What about `O=C1N/C(=N\c2nccs2)S/C1=C\c1cc(Br)ccc1O` ?
OUTPUT: 34

INPUT: What about `Cc1csc(/N=C2\NC(=O)/C(=C/c3ccccc3Cl)S2)n1` ?
OUTPUT: 20.9

INPUT: What about `O=C1N/C(=N\c2nc(-c3ccccc3)cs2)S/C1=C\c1ccccc1Cl` ?
OUTPUT: 23.4

INPUT: What about `Cc1csc(/N=C2\NC(=O)/C(=C/c3ccc(Cl)cc3)S2)n1` ?
OUTPUT: 15.2

INPUT: What about c1ccc(-c2ccc(C(c3ccccc3)n3ccnc3)cc2)cc1 (stereo not given) [BIFONAZOLE] ?
OUTPUT: 640

====

measured.on: Prostaglandin G/H synthase 1 (Ovis aries) (UniProt P05979)
Sequence (P05979 whole entry): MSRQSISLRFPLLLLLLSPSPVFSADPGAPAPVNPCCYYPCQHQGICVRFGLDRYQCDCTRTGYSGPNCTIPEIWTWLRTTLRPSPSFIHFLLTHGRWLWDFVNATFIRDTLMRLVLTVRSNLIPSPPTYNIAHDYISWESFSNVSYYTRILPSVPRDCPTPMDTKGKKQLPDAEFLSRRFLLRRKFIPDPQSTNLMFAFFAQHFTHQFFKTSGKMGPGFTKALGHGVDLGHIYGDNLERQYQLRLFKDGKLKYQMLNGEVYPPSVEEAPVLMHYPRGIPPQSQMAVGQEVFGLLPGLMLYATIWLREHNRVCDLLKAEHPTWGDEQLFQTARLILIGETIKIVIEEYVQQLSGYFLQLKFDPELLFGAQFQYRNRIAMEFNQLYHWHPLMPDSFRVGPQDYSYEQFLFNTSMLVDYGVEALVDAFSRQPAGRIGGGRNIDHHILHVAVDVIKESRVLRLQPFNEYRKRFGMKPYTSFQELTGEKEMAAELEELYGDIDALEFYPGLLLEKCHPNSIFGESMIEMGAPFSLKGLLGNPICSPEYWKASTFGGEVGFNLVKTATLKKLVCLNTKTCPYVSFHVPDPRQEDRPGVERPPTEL
assay.notes: Inhibition of ovine COX1 assessed as inhibition of PGF2a production by enzyme immunoassay
Set-up: concentration or dose not given beside the values
condition.parameters: concentration not given here
Short version: inhibition at least 60% is class 1, less is class 0.

INPUT: Please tell me: is the compound `O=C1N/C(=N\c2nccs2)S/C1=C\c1cccc(Cl)c1Cl` at or over 60% in terms of inhibition?
OUTPUT: class 1

INPUT: What about `O=C1N/C(=N\c2nc(-c3ccccc3)cs2)S/C1=C\c1cccc(Cl)c1` ?
OUTPUT: class 1

INPUT: What about `O=C1N/C(=N\c2nccs2)S/C1=C\c1ccc(Br)cc1` ?
OUTPUT: class 1

INPUT: What about `O=C1N/C(=N\c2nc(-c3ccccc3)cs2)S/C1=C\c1ccc(Cl)cc1` ?
OUTPUT: class 1

INPUT: What about `O=C1N/C(=N\c2nccs2)S/C1=C\c1cc(Br)ccc1O` ?
OUTPUT: class 1

INPUT: What about COc1ccc2cc([C@H](C)C(=O)O)ccc2c1 [NAPROXEN] ?
OUTPUT: class 0

====

Test system: Escherichia coli
assay.notes: Antibacterial activity against Escherichia coli ATCC 35210 after 24 hr by microdilution test
Type: functional
condition.parameters: ATCC 35210, 24 h
// class assignment uses MIC with these ranges: bin 0 = under 30 µM, bin 1 = from 30 µM up to 50 µM, bin 2 = 50 µM and over

INPUT: Hi, small favor: classify `Cc1csc(/N=C2\NC(=O)/C(=C/c3ccccc3Cl)S2)n1` by its MIC when you get a moment.
OUTPUT: bin 2

INPUT: What about `COc1ccc(OC)c(/C=C2\S/C(=N/c3nccs3)NC2=O)c1` ?
OUTPUT: bin 2

INPUT: What about `Cc1ccc(/C=C2\S/C(=N/c3nccs3)NC2=O)cc1` ?
OUTPUT: bin 1

INPUT: What about `COc1ccccc1/C=C1\S/C(=N/c2nccs2)NC1=O` ?
OUTPUT: bin 1

INPUT: What about `CN(C)c1ccc(/C=C2\S/C(=N/c3nccs3)NC2=O)cc1` ?
OUTPUT: bin 0

INPUT: What about CN[C@@H]1[C@H](O[C@H]2[C@H](O[C@H]3[C@H](O)[C@@H](O)[C@H](N=C(N)N)[C@@H](O)[C@@H]3N=C(N)N)O[C@@H](C)[C@]2(O)C=O)O[C@@H](CO)[C@H](O)[C@H]1O [STREPTOMYCIN] ?
OUTPUT: bin 2

INPUT: What about `O=C1N/C(=N\c2nc(-c3ccccc3)cs2)S/C1=C\c1cccc(Cl)c1` ?
OUTPUT: bin 0

INPUT: What about `O=C1N/C(=N\c2nccs2)S/C1=C\c1ccc(Br)cc1` ?
OUTPUT: bin 0

INPUT: What about `O=C1N/C(=N\c2nccs2)S/C1=C\c1cccc(F)c1` ?
OUTPUT: bin 1

====

Tested on: Bacillus cereus
assay.notes: Antibacterial activity against Bacillus cereus clinical isolate after 24 hr by microdilution test
Format: functional
Rule: measured MIC below 30 µM gets y; anything equal to or greater than 30 µM gets n.

INPUT: Hello, I'm reviewing records and need to know if MIC of `O=C1N/C(=N\c2nccs2)S/C1=C\c1cccc(F)c1` is below 30 µM. Could you check?
OUTPUT: y

INPUT: What about `O=C1N/C(=N\c2nccs2)S/C1=C\c1ccc(F)cc1` ?
OUTPUT: y

INPUT: What about `O=C1N/C(=N\c2nccs2)S/C1=C\c1ccc(Br)cc1` ?
OUTPUT: y

INPUT: What about `O=C1N/C(=N\c2nc(-c3ccccc3)cs2)S/C1=C\c1ccccc1Cl` ?
OUTPUT: y

INPUT: What about `CC1(C)S[C@@H]2[C@H](NC(=O)[C@H](N)c3ccccc3)C(=O)N2[C@H]1C(=O)O` ?
OUTPUT: n

INPUT: What about `CN[C@@H]1[C@H](O[C@H]2[C@H](O[C@H]3[C@H](O)[C@@H](O)[C@H](N=C(N)N)[C@@H](O)[C@@H]3N=C(N)N)O[C@@H](C)[C@]2(O)C=O)O[C@@H](CO)[C@H](O)[C@H]1O` ?
OUTPUT: n

INPUT: What about `O=C1N/C(=N\c2nccs2)S/C1=C\c1cccc(Br)c1` ?
OUTPUT: y

INPUT: What about `Cc1csc(/N=C2\NC(=O)/C(=C/c3ccccc3Cl)S2)n1` ?
OUTPUT: n

INPUT: What about `O=C1N/C(=N\c2nccs2)S/C1=C\c1cccc(Cl)c1Cl` ?
OUTPUT: n

====

System: Aspergillus niger
assay.notes: Fungicidal activity against Aspergillus niger ATCC 6275 after 72 hrs by serial subcultivation method
Type: functional
condition.parameters: ATCC 6275, 72 h
Rule: measured MFC below 30 µM gets label 1; anything equal to or greater than 30 µM gets label 0.

INPUT: Hello, I'm reviewing records and need to know if MFC of CC(=O)N1CCN(c2ccc(OCC3COC(Cn4ccnc4)(c4ccc(Cl)cc4Cl)O3)cc2)CC1 (stereo unspecified) is below 30 µM. Could you check?
OUTPUT: label 0

INPUT: What about `O=C1N/C(=N\c2nccs2)S/C1=C\c1ccc(Br)cc1` ?
OUTPUT: label 1

INPUT: What about `O=C1N/C(=N\c2nccs2)S/C1=C\c1cccc(Br)c1` ?
OUTPUT: label 1

INPUT: What about `O=C1N/C(=N\c2nccs2)S/C1=C\c1cc(Br)ccc1O` ?
OUTPUT: label 0

INPUT: What about `Cc1csc(/N=C2\NC(=O)/C(=C/c3ccccc3Cl)S2)n1` ?
OUTPUT: label 1

INPUT: What about c1ccc(-c2ccc(C(c3ccccc3)n3ccnc3)cc2)cc1 (stereo unspecified) ?
OUTPUT: label 0

INPUT: What about `O=C1N/C(=N\c2nc(-c3ccccc3)cs2)S/C1=C\c1ccccc1Cl` ?
OUTPUT: label 1

INPUT: What about `O=C1N/C(=N\c2nccs2)S/C1=C\c1cccc(Cl)c1Cl` ?
OUTPUT: label 0

INPUT: What about `COc1ccccc1/C=C1\S/C(=N/c2nccs2)NC1=O` ?
OUTPUT: label 0

INPUT: What about `O=C1N/C(=N\c2nccs2)S/C1=C\c1ccc(F)cc1` ?
OUTPUT: label 0

INPUT: What about `Cc1csc(/N=C2\NC(=O)/C(=C/c3ccc(Cl)cc3)S2)n1` ?
OUTPUT: label 1

INPUT: What about `Cc1ccc(/C=C2\S/C(=N/c3nccs3)NC2=O)cc1` ?
OUTPUT: label 0

INPUT: What about `O=C1N/C(=N\c2nccs2)S/C1=C\c1cccc(F)c1` ?
OUTPUT: label 0

INPUT: What about `O=C1N/C(=N\c2nccs2)S/C1=C\c1ccc(Cl)cc1Cl` ?
OUTPUT: label 0

INPUT: What about `O=C1N/C(=N\c2nccs2)S/C1=C\c1c(Cl)cccc1Cl` ?
OUTPUT: label 0

INPUT: What about `O=C1N/C(=N\c2nc(-c3ccccc3)cs2)S/C1=C\c1ccc(Cl)cc1` ?
OUTPUT: label 1

INPUT: What about `COc1ccc(OC)c(/C=C2\S/C(=N/c3nccs3)NC2=O)c1` ?
OUTPUT: label 0

INPUT: What about `O=C1N/C(=N\c2nc(-c3ccccc3)cs2)S/C1=C\c1ccccc1` ?
OUTPUT: label 1

INPUT: What about `O=C1N/C(=N\c2nc(-c3ccccc3)cs2)S/C1=C\c1cccc(Cl)c1` ?
OUTPUT: label 1

INPUT: What about `Cc1cnc(/N=C2\NC(=O)/C(=C/c3ccc([N+](=O)[O-])cc3)S2)s1` ?
OUTPUT: label 0

INPUT: What about `CN(C)c1ccc(/C=C2\S/C(=N/c3nccs3)NC2=O)cc1` ?
OUTPUT: label 1
